B1: Azoarcus group I ribozyme (parent)
chain: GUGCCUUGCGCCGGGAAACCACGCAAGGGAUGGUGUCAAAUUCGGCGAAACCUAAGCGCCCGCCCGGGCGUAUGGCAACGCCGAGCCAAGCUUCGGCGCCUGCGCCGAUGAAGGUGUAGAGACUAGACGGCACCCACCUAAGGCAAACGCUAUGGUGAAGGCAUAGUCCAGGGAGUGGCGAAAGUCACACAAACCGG

- Variants of: B1
- PROCEDURE DETAILS: reverse-splicing fitness (ratio to wild type); higher = more active; in vitro selection; Mg2+ level not given
PROPERTY MEASURED: reverse-splicing fitness

INSERT INTO measurements (changes, endpoint_result) VALUES
  ('C82U A111U A120C A145G C150U U176A', 0.0116),
  ('C82G A120U A145C C150G C169U U176A', 0.00213),
  ('C82A A111G A120G A145C C150G C169U', 0.00786),
  ('C82U A111G A145C C150G C169U U176G', 0.00478),
  ('C82U A111G A120G A145U C150U', 0.0126),
  ('A111U A120C A145U C150G C169A U176C', 0.00757),
  ('C82G A111C C150A C169U U176A', 0.0193),
  ('C82U A111U A120U A145U C150G C169A U176A', 0.0028),
  ('A111C A145C C150A C169G U176A', 0.0274),
  ('C82G A120G A145U C150U C169G', 0.0343),
  ('A120C A145C C150G', 0.279),
  ('C82A A120G A145U C169U U176A', 0.02),
  ('A111U A120U C150A C169G U176A', 0.00698),
  ('C82G A111G A120C A145G C150G U176G', 0.0057),
  ('C82A A111C A120U C150A C169G', 0.00503),
  ('A111C A120G A145U C150A C169G', 0.0221),
  ('C82G A111U A120G A145U C150A U176G', 0.00661),
  ('C82G A111C C150A C169A U176A', 0.0183),
  ('A111U A120C A145G C169A', 0.0121),
  ('A111G A120U A145G C150G C169A U176C', 0.00599),
  ('C82G A145C C150G C169G', 0.00714),
  ('A111U A120C A145C C150U C169A U176A', 0.00887);

Data provenance: the RNAGym collection of RNA variant scans (doi:10.1093/molbev/msab373)
